- test_target: KMT9 (Homo sapiens, UniProt Q9Y5N5)
- Sequence (Q9Y5N5 whole entry): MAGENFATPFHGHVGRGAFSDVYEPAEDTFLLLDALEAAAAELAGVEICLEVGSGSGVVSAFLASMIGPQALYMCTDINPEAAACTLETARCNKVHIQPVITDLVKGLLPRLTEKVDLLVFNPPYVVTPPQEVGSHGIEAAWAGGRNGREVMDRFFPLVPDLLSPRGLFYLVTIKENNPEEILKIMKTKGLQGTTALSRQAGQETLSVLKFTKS
- Sequence (Q9UI30 1-120 isoform Q9UI30-2 partner): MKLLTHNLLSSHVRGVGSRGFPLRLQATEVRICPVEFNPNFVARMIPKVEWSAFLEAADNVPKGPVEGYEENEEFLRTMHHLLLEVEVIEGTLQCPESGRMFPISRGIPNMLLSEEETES
- test: KMT9 methyltransferase inhibition assay, 3H-SAM scintillation (entries 1-154)
- Type: biochemical
- settings: entries 1-154: 3H-SAM assay, 25 nM KMT9, 5 μM ETF1
- Method: The assay was carried out in 0.5 mL Eppendorf tubes in duplicates. Assay buffer consisted of 50 mM BTP, 1 mM MgCl2, 1 mM DTT and 0.01% Triton-X^100 at a pH of 8.5 (adjusted using 1 M HCl and 1 M NaOH). […] The scintillation signal was measured for 3x 1 min using TriCarb 2910 TR (Perkin Elmer) scintillation counter in 3H CPM mode (LL: 0, UL: 18.6). Inhibition was calculated using the following formula: […]
Please respond with reported IC50 for every item in the list.

I'd like to know its IC50. The molecule in question is Nc1ncnc2c1c(Br)cn2[C@@H]1C[C@H](CNC[C@@H]2CCCNC2)[C@@H](O)[C@H]1O [456 (328)]
> 10 µM

I'd like to know its IC50. The molecule in question is C=Cc1cn([C@@H]2C[C@H](CNCCCNCCc3cccc(Oc4ccccc4)c3)[C@@H](O)[C@H]2O)c2ncnc(N)c12 [462 (336)]
1 to 10 µM

I'd like to know its IC50. The molecule in question is Nc1ncnc2c1c(-c1ccn(Cc3ccccc3)n1)cn2[C@@H]1C[C@H](C2CCNCC2)[C@@H](O)[C@H]1O [Compound 489]
1 to 10 µM

I'd like to know its IC50. The molecule in question is C=Cc1cn([C@@H]2C[C@H](CN3CC(CNCCc4ccc(F)cc4)C3)[C@@H](O)[C@H]2O)c2ncnc(N)c12 [485 (359)]
1 to 10 µM

I'd like to know its IC50. The molecule in question is Nc1ncnc2c1c(C1CC1)cn2[C@@H]1C[C@H](CNCCCNCCc2ccccc2)[C@@H](O)[C@H]1O [468 (342)]
1 to 10 µM

I'd like to know its IC50. The molecule in question is CNc1ncnc2c1ccn2[C@@H]1C[C@H](CN(CCCNCCc2cccc(Oc3ccccc3)c2)C(C)C)[C@@H](O)[C@H]1O [362 (266)]
1 to 10 µM

I'd like to know its IC50. The molecule in question is Nc1ncnc2c1c(-c1nccs1)cn2[C@@H]1C[C@H](CN(CCCNCCc2ccc(F)cc2)c2cn[nH]c2)[C@@H](O)[C@H]1O [Compound 599]
< 0.1 µM

I'd like to know its IC50. The molecule in question is Nc1ncnc2c1ncn2[C@@H]1O[C@H](CNCCCNCc2ccc(OCc3ccccc3)cc2)[C@@H](O)[C@H]1O [321 (224)]
> 10 µM

I'd like to know its IC50. The molecule in question is CNc1ncnc2c1ccn2[C@@H]1C[C@H](CN(CCCNCCc2ccccc2)c2ccn(C)n2)[C@@H](O)[C@H]1O [443 (315)]
> 10 µM

I'd like to know its IC50. The molecule in question is CNc1ncnc2c1ccn2[C@@H]1C[C@H](C(=O)NCC2CCCCN2)[C@@H](O)[C@H]1O (stereo partly shown) [350 (254)]
> 10 µM

I'd like to know its IC50. The molecule in question is CCN(CCCNCCc1ccc2ccccc2c1)C[C@H]1C[C@@H](n2ccc3c(NC)ncnc32)[C@H](O)[C@@H]1O [375 (279)]
> 10 µM

I'd like to know its IC50. The molecule in question is Nc1ncnc2c1c(-c1ccncn1)cn2[C@@H]1C[C@H](CNCCCNCCc2ccccc2)[C@@H](O)[C@H]1O [471 (345)]
0.1 to 1 µM

I'd like to know its IC50. The molecule in question is CCNC(=O)NCCCNC(=O)[C@H]1O[C@@H](n2cnc3c(N)ncnc32)[C@H](O)[C@@H]1O [307 (206)]
> 10 µM

I'd like to know its IC50. The molecule in question is CNc1ncnc2c1ccn2[C@@H]1C[C@H](C(=O)N(C)CCCNCCc2cccc(Oc3ccccc3)c2)[C@@H](O)[C@H]1O [351 (255)]
1 to 10 µM

I'd like to know its IC50. The molecule in question is CCc1cn([C@@H]2C[C@H](CNCCCNCCc3cccc(Oc4ccccc4)c3)[C@@H](O)[C@H]2O)c2ncnc(N)c12 [459 (332)]
1 to 10 µM

I'd like to know its IC50. The molecule in question is Nc1ncnc2c1ncn2[C@@H]1O[C@H](C(=O)NCCCNC(=O)Nc2ccccc2)[C@@H](O)[C@H]1O [684 (202)]
> 10 µM

I'd like to know its IC50. The molecule in question is CNc1ncnc2c1ccn2[C@@H]1C[C@H](C(=O)NCCNCCc2cccc(Oc3ccccc3)c2)[C@@H](O)[C@H]1O [356 (260)]
> 10 µM

I'd like to know its IC50. The molecule in question is CNc1ncnc2c1ccn2[C@@H]1C[C@H](C(=O)NCC2CCCNC2)[C@@H](O)[C@H]1O (stereo partly shown) [348 (252)]
> 10 µM

I'd like to know its IC50. The molecule in question is CNc1ncnc2c1ccn2[C@@H]1C[C@H](CN2CCC23CCCNC3)[C@@H](O)[C@H]1O (stereo partly shown) [447 (319)]
> 10 µM

I'd like to know its IC50. The molecule in question is Nc1ncnc2c1c(-c1nccs1)cn2[C@@H]1C[C@H](C2CCNCC2)[C@@H](O)[C@H]1O [487 (360)]
1 to 10 µM

I'd like to know its IC50. The molecule in question is CNc1ncnc2c1ccn2[C@@H]1C[C@H](CSCCCNCCc2ccccc2)[C@@H](O)[C@H]1O [427 (299)]
1 to 10 µM

I'd like to know its IC50. The molecule in question is CNc1ncnc2c1ccn2[C@@H]1C[C@H](CN2CC(CNCCc3ccc4ccccc4c3)C2)[C@@H](O)[C@H]1O [360 (264)]
> 10 µM

I'd like to know its IC50. The molecule in question is CC(=O)N1CCC(c2cn([C@@H]3C[C@H](CNCCCNCCc4ccccc4)[C@@H](O)[C@H]3O)c3ncnc(N)c23)CC1 [481 (355)]
1 to 10 µM

I'd like to know its IC50. The molecule in question is CNc1ncnc2c1ccn2[C@@H]1C[C@H](CN2CCC23CCNC3)[C@@H](O)[C@H]1O (stereo partly shown) [446 (318)]
> 10 µM

I'd like to know its IC50. The molecule in question is CNc1ncnc2c1ccn2[C@@H]1C[C@H](CNCCCNCCc2cccc(Oc3ccccc3)c2)[C@@H](O)[C@H]1O [287 (184)]
1 to 10 µM

I'd like to know its IC50. The molecule in question is CNc1ncnc2c1ccn2[C@@H]1C[C@H](/C=C/CCNCCc2ccccc2)[C@@H](O)[C@H]1O [422 (293)]
> 10 µM

I'd like to know its IC50. The molecule in question is CNc1ncnc2c1ccn2[C@@H]1C[C@H](CNCCCNCCc2ccccc2)[C@@H](O)[C@H]1O [291 (188)]
1 to 10 µM

I'd like to know its IC50. The molecule in question is CNc1ncnc2c1ccn2[C@@H]1C[C@H](CN(CCCN)c2cncs2)[C@@H](O)[C@H]1O [437 (309)]
1 to 10 µM

----------
- test_target: UniProt:Q9Y5N5
- test: KMT9 methyltransferase inhibition assay, 3H-SAM scintillation (entries 1-154)
- Type: biochemical
- settings: entries 1-154: 3H-SAM assay, 25 nM KMT9, 5 μM ETF1
recorded_metric: IC50

I'd like to know its IC50. The compound in question is Nc1ncnc2c1ncn2[C@@H]1O[C@H](C(=O)NC2CCN(CCc3ccccc3)CC2)[C@@H](O)[C@H]1O
> 10 µM

I'd like to know its IC50. The compound in question is Nc1ncnc2c1c(C1CCOCC1)cn2[C@@H]1C[C@H](CNCCCNCCc2ccccc2)[C@@H](O)[C@H]1O
1 to 10 µM

I'd like to know its IC50. The compound in question is Nc1ncnc2c1c(Br)cn2[C@@H]1C[C@H](C(=O)NC[C@H]2CCCNC2)[C@@H](O)[C@H]1O
> 10 µM

I'd like to know its IC50. The compound in question is Nc1ncnc2c1c(-c1ncns1)cn2[C@@H]1C[C@H](CNCCCNCCc2ccccc2)[C@@H](O)[C@H]1O
1 to 10 µM

I'd like to know its IC50. The compound in question is N#Cc1cn([C@@H]2C[C@H](CNCCCNCCc3ccccc3)[C@@H](O)[C@H]2O)c2ncnc(N)c12
1 to 10 µM

I'd like to know its IC50. The compound in question is CNc1ncnc2c1ccn2[C@@H]1C[C@H](CNC[C@H]2CCCNC2)[C@@H](O)[C@H]1O
> 10 µM

I'd like to know its IC50. The compound in question is CNc1ncnc2c1ccn2[C@@H]1C[C@H](CSCCNCCc2ccccc2)[C@@H](O)[C@H]1O
> 10 µM

I'd like to know its IC50. The compound in question is CCC(=O)NCCNC[C@H]1O[C@@H](n2cnc3c(N)ncnc32)[C@H](O)[C@@H]1O
> 10 µM

I'd like to know its IC50. The compound in question is Nc1ncnc2c1c(-c1nc(Cc3ccccc3)cs1)cn2[C@@H]1C[C@H](CNCCCNCCc2ccccc2)[C@@H](O)[C@H]1O
0.1 to 1 µM

I'd like to know its IC50. The compound in question is Nc1ncnc2c1ccn2[C@@H]1C[C@H](CN(CCCNCCc2ccc(F)cc2)c2c[nH]nc2Br)[C@@H](O)[C@H]1O
0.1 to 1 µM

I'd like to know its IC50. The compound in question is CNc1ncnc2c1ccn2[C@@H]1C[C@H](CN2CCC23CNC3)[C@@H](O)[C@H]1O
> 10 µM

I'd like to know its IC50. The compound in question is CCc1cn([C@@H]2C[C@H](CNCCCNCCc3ccccc3)[C@@H](O)[C@H]2O)c2ncnc(C)c12
> 10 µM

I'd like to know its IC50. The compound in question is CCC(=O)NCCCNC[C@H]1O[C@@H](n2cnc3c(N)ncnc32)[C@H](O)[C@@H]1O
> 10 µM

I'd like to know its IC50. The compound in question is Nc1ncnc2c1ncn2[C@@H]1O[C@H](C(=O)NCCCNC(=O)Cc2ccccc2)[C@@H](O)[C@H]1O
> 10 µM

I'd like to know its IC50. The compound in question is NC[C@H]1C[C@@H](n2cc3c4c(ncnc42)NC(=O)CC3)[C@H](O)[C@@H]1O
> 10 µM

I'd like to know its IC50. The compound in question is CNc1ncnc2c1ccn2[C@@H]1C[C@H](CN2CCC[C@]23CCCNC3)[C@@H](O)[C@H]1O (single isomer, unassigned)
> 10 µM

I'd like to know its IC50. The compound in question is CCN(CCCNCCc1cccc(Oc2ccccc2)c1)C[C@H]1C[C@@H](n2ccc3c(NC)ncnc32)[C@H](O)[C@@H]1O
1 to 10 µM

I'd like to know its IC50. The compound in question is CNc1ncnc2c1ccn2[C@@H]1C[C@H](CN(CCCNCCc2cccc(Oc3ccccc3)c2)CC2CC2)[C@@H](O)[C@H]1O
> 10 µM

I'd like to know its IC50. The compound in question is C=Cc1cn([C@@H]2C[C@H](CNCCCNCCc3ccccc3)[C@@H](O)[C@H]2O)c2ncnc(Cl)c12
> 10 µM

I'd like to know its IC50. The compound in question is NC[C@H]1C[C@@H](n2cc3c4c(ncnc42)NCCCC3)[C@H](O)[C@@H]1O
> 10 µM
